Catalogue of Population Hoechst High Intensity Objects (%) values
# System: HEK-293T
# test-description: Multiplex assay against HEK293T
# Type: toxicity, cell-based
# experimental-setup: human, 24 h, 1 µM, compound concentration 1 uM, number of replicates 2
Return type: number; implicit unit %.

>  <given-smiles>
CC(C)c1c(NC(=O)Nc2ccc(Cl)cc2)c(=O)n(-c2ccccc2)n1C

>  <endpoint-result>
8

$$$$
>  <given-smiles>
Cc1cn(CCN2CCN(c3ccccc3-c3cc(C#N)cc(C(=O)NCCCN4CCCC4)c3)CC2)c2ccccc12

>  <endpoint-result>
8

$$$$

API: the following record is the query input.
Looking up CN(C)CCCNc1ccnc(Nc2cccc(Cl)c2)n1 , I found its Population Hoechst High Intensity Objects (%) recorded as 6

---

# System: U2OS
# test-description: Multiplex assay against U2OS
# Assay type: toxicity, cell-based
# experimental-setup: human, 24 h, 10 µM, compound concentration 10 uM, number of replicates 2
quantity-measured: Population Mitochondria Different-Phenotype (%)

>  <compound>
CC(=O)O[C@H]1C(=O)[C@@]2(C)[C@H]([C@H](OC(=O)c3ccccc3)[C@]3(O)C[C@H](OC(=O)[C@H](O)[C@@H](NC(=O)c4ccccc4)c4ccccc4)C(C)=C1C3(C)C)[C@]1(OC(C)=O)CO[C@@H]1C[C@@H]2O

>  <endpoint-result>
27% [middle of 4 runs]

$$$$

Population Mitochondria Different-Phenotype (%) value, target or system U2OS, for O=C1Nc2ccc(C(=O)c3ccco3)cc2C1=Cc1cc(Cl)c(O)c(Cl)c1 [GW406108X] : 0%

So the reported Population Mitochondria Different-Phenotype (%) for COc1ccncc1C(=O)NC(=O)Nc1ccc(-c2ccccc2)c(C(F)(F)F)c1 , on U2OS, turned out to be 0%

Note to self: Population Mitochondria Different-Phenotype (%) of Cl.Clc1ccc2nsnc2c1NC1=NCCN1 [TIZANIDINE HYDROCHLORIDE] with U2OS was 0%

---

# Test system: U2OS
# test-description: Multiplex assay against U2OS
# Format: toxicity, cell-based
# experimental-setup: human, 48 h, 10 µM, compound concentration 10 uM, number of replicates 2
quantity-measured: Population Normal (%)
Kindly provide the numeric value in % only, without the unit symbol.

// solved cases for Population Normal (%) follow
>  <compound>
CC1=C(C)C(=O)C(C(CCCCCC(=O)O)c2ccccc2)=C(C)C1=O (configuration not stated)

>  <quantity-measured>
Population Normal (%)

>  <endpoint-result>
99

$$$$
>  <compound>
NC(=O)c1ccc(-c2nc(-c3ccc4c(c3)OCCO4)c(-c3ccccn3)[nH]2)cc1

>  <quantity-measured>
Population Normal (%)

>  <endpoint-result>
100

$$$$
>  <compound>
Cn1cc(-c2ccc(-c3cncc(Cl)c3N3CCC4(CCNC4=O)CC3)cc2)cn1

>  <quantity-measured>
Population Normal (%)

>  <endpoint-result>
100

$$$$
>  <compound>
CC(C)c1cc(-c2ccc(F)c3ccccc23)nc(N)n1

>  <quantity-measured>
Population Normal (%)

>  <endpoint-result>
100

$$$$
>  <compound>
Cl.Clc1ccc2nsnc2c1NC1=NCCN1 [TIZANIDINE HYDROCHLORIDE]

>  <quantity-measured>
Population Normal (%)

>  <endpoint-result>
100

$$$$

// field: Population Normal (%); key: COc1ccc2cc(S(=O)(=O)N[C@H](CC(=O)N[C@H](Cc3ccc(CN4[C@H](C)CCC[C@@H]4C)cc3)C(=O)N(C)C(C)C)c3ccc4c(c3)OCO4)ccc2c1.Cl ; value = 100

Sample CNS(=O)(=O)c1ccc(N(C)C)c(Nc2ncnc3cc(OC)c(OC)cc23)c1 ; Population Normal (%) observed: 99
